Reported growth inhibition values for the following compounds.
- procedure-details: NCI Yeast Anticancer Drug Screen. Data for the bub3 strain (AID 167)
- study-conditions: S. cerevisiae bub3 mutant strain, at 1.2 µM, hits give high values
This is part of a sample that, as a whole, favours compounds with a hit. Of some 79,000 tested, about 15% had one in any assay.
Please reply with the bare figure in % and do not write the unit itself.

Below, each entry is followed by its recorded growth inhibition result.
compound | unit-abbreviation | number
Nc1c([N+](=O)[O-])cc2c3c(cccc13)CC2 | % | -4
COc1ccc2c(Cc3c4ccccc4cc4ccccc34)cncc2c1O | % | 5
CC(=O)c1ccc(NCN2C(=O)c3ccccc3C2=O)cc1 | % | -15
CC(=O)O/N=C/c1c2ccccc2cc2ccccc12 | % | 9
CCSc1c2ccccc2c(-c2nc(F)nc(F)n2)n1CCc1ccccc1 | % | -11

Tell me measured growth inhibition for CC(=O)CC[N+](C)(C)C please.
12
